- Tested on: Nucleic Acid
- Protocol Summary: Stabilization of 21-mer human F21T G4-telomeric quadruplex assessed as change in melting temperature at 1 uM by FRET assay
- Assay type: nucleic-acid assay
Parameter: ΔTm (°C)

Completed entries (count: 2):
- Smiles: "O=C1c2ccc3c4c(N5CCCCC5)cc5c6c(cc(N7CCCCC7)c(c7ccc(c2c37)C(=O)N1CCOCCN1CCCCC1)c64)C(=O)N(CCOCCN1CCCCC1)C5=O"
  Unit Of Measure: "°C"
  ΔTm: 13.1
- Smiles: "O=C1c2ccc3c4ccc5c6c(cc(N7CCCCC7)c(c7ccc(c2c37)C(=O)N1CCOCCN1CCCCC1)c64)C(=O)N(CCOCCN1CCCCC1)C5=O"
  Unit Of Measure: "°C"
  ΔTm: 23

P = CN(C)CCCN1CCN(c2cc3c4c(ccc5c6ccc7c8c(ccc(c2c45)c86)C(=O)N(CCN2CCCCC2)C7=O)C(=O)N(CCN2CCCCC2)C3=O)CC1
Q = CN(C)CCOCCN1C(=O)c2ccc3c4c(N5CCCCC5)cc5c6c(ccc(c7c(N8CCCCC8)cc(c2c37)C1=O)c64)C(=O)N(CCOCCN(C)C)C5=O
R = O=C1c2ccc3c4c(N5CCCCC5)cc5c6c(ccc(c7c(N8CCCCC8)cc(c2c37)C(=O)N1CCOCCN1CCCCC1)c64)C(=O)N(CCOCCN1CCCCC1)C5=O
Prompt: Arrange the 3 compounds by rising ΔTm, starting with the smallest. The labels, placed in the requested order, form the answer.
Response: R, Q, P
